These measurements were taken from patent US5324708A.

Experiment: Hygroscopicity of products (in words)
Assay type: physicochemical
Conditions: product of the example
endpoint: hygroscopicity (in words)

Answered cases to consult:
O=C(O)CNCP(=O)(O)O [I.19] | non-hygroscopic
O=C(O)CNCP(=O)(O)O [Example I.12] | non-hygroscopic
O=C(O)CNCP(=O)(O)O [I.23] | non-hygroscopic
CP(=O)(O)CCC(N)C(=O)O (centres unmarked) [I.10] | non-hygroscopic
O=C(O)CNCP(=O)(O)O [I.7] | non-hygroscopic
O=C(O)CNCP(=O)(O)O [I.8] | non-hygroscopic

For the next question, use this molecule.
Qu. Name the recorded hygroscopicity (in words) of the molecule listed here: O=C(O)CNCP(=O)(O)O [I.22]
Ans. non-hygroscopic
